Provenance of the data: PubChem BioAssay AID1918958

Tested on: NCI-H196 complex spheroid viability
Test: Anticancer human tumor NCI-H196 cell line growth inhibition [LSD1];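 further: spheroids exposed to agents for 7 days before readout; 100% = DMSO vehicle control viability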
Settings: second compound 10 µM; first compound 0.0949 µM; stronger effect = lower value
From the text: Multicellular complex tumor spheroid response to LSD1 Inhibitor Iadademstat in combination with a variety of drugs and investigational agents in selected tumor cell lines The current study was undertaken to assess response to LSD1 inhibitors in combination with standard-of-care drugs and investigational agents in solid tumor complex spheroid models as well as in the K-562 leukemia. […] Compounds. […] If the clinical Cmax for an agent had not been determined, the highest concentration tested was 10 microM. […]
measurement-label: viability, T/C

Request: Using the record for Nc1ccn(C2OC(CO)C(O)C2(F)F)c(=O)n1 (stereo unspecified) + NC1CC1c1ccc(-c2cccc(O)c2)cc1 , report its viability, T/C.
Response: 72.5%

Request: Which viability, T/C is reported for this compound? O=C(C=Cc1cccc(S(=O)(=O)Nc2ccccc2)c1)NO + NC1CC1c1ccc(-c2cccc(O)c2)cc1
Response: 76.3%

Request: Given CCN(c1cc(-c2ccc(CN3CCOCC3)cc2)cc(C(=O)NCc2c(C)cc(C)[nH]c2=O)c1C)C1CCOCC1 + NC1CC1c1ccc(-c2cccc(O)c2)cc1 , state its recorded viability, T/C.
Response: 104%

Request: Entry NS(=O)(=O)OCC1CC(n2ccc3c(NC4CCc5ccccc54)ncnc32)CC1O (stereo unspecified) + NC1CCC(NC2CC2c2ccccc2)CC1 : reported viability, T/C = ?
Response: 73.6%

Request: What measured viability, T/C goes with NS(=O)(=O)OCC1CC(n2ccc3c(NC4CCc5ccccc54)ncnc32)CC1O (stereo unspecified) + NC1CC1c1ccc(-c2cccc(O)c2)cc1 ?
Response: 58.6%

Request: Value lookup for viability, T/C; key = O=C(C=Cc1cccc(S(=O)(=O)Nc2ccccc2)c1)NO + NC1CCC(NC2CC2c2ccccc2)CC1
Response: 64.7%

----------
Test system: NCI-H196 complex spheroid viability
Assay: Anticancer human tumor NCI-H196 cell line growth inhibition [LSD1]; active means viability on the fitted dose curve at most 10% of control; inactive means the rest;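 further: spheroids exposed to agents for 7 days before readout; 100% = DMSO vehicle control viability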
Settings: second compound 3.16 µM; first compound 0.03 µM
Your response should consist of one outcome taken from class 1 = active, class 0 = inactive

Here are 2 molecules together with their reported answers.
Nc1ccccc1NC(=O)c1ccc(CNC(=O)OCc2cccnc2)cc1 + NC1CC1c1ccc(-c2cccc(O)c2)cc1 :: class 0
O=C(C=Cc1cccc(S(=O)(=O)Nc2ccccc2)c1)NO + NC1CC1c1ccc(-c2cccc(O)c2)cc1 :: class 0

Request: Record request — test call for Nc1ncn(C2CC(O)C(CO)S2)c(=O)n1 (configuration not stated) + NC1CC1c1ccc(-c2cccc(O)c2)cc1
Response: class 0

Request: Dear colleague, could you share the recorded outcome for Nc1ccccc1NC(=O)c1ccc(CNC(=O)OCc2cccnc2)cc1 + NC1CCC(NC2CC2c2ccccc2)CC1 when you have a moment?
Response: class 0

Request: So what was the verdict on Nc1ccn(C2OC(CO)C(O)C2(F)F)c(=O)n1 (configuration not stated) + NC1CCC(NC2CC2c2ccccc2)CC1 in this test?
Response: class 0

Request: Per the assay record, what outcome was assigned to NS(=O)(=O)OCC1CC(n2ccc3c(NC4CCc5ccccc54)ncnc32)CC1O (configuration not stated) + NC1CC1c1ccc(-c2cccc(O)c2)cc1 ?
Response: class 0

Request: Dear colleague, could you share the recorded outcome for Nc1ncn(C2CC(O)C(CO)S2)c(=O)n1 (configuration not stated) + NC1CCC(NC2CC2c2ccccc2)CC1 when you have a moment?
Response: class 0

Request: Write down the call the test reported for this molecule. Item: CCc1c2c(nc3ccc(O)cc13)-c1cc3c(c(=O)n1C2)COC(=O)[C@]3(O)CC + NC1CC1c1ccc(-c2cccc(O)c2)cc1
Response: class 1

Request: Any idea what this test logged for COc1cc(C2c3cc4c(cc3C(OC3OC5COC(C)OC5C(O)C3O)C3COC(=O)C23)OCO4)cc(OC)c1O (configuration not stated) + NC1CCC(NC2CC2c2ccccc2)CC1 ?
Response: class 0

Request: Can you look up the reported call for CCc1c2c(nc3ccc(O)cc13)-c1cc3c(c(=O)n1C2)COC(=O)[C@]3(O)CC + NC1CCC(NC2CC2c2ccccc2)CC1 for me?
Response: class 1

Request: For this molecule, state the assay outcome: NS(=O)(=O)OCC1CC(n2ccc3c(NC4CCc5ccccc54)ncnc32)CC1O (configuration not stated) + NC1CCC(NC2CC2c2ccccc2)CC1
Response: class 0

Request: Tell me the recorded outcome of this test for CCN(c1cc(-c2ccc(CN3CCOCC3)cc2)cc(C(=O)NCc2c(C)cc(C)[nH]c2=O)c1C)C1CCOCC1 + NC1CC1c1ccc(-c2cccc(O)c2)cc1 .
Response: class 0
